# Method Summary: qHTS RealTime-Glo MT Cell Viability Assay in HepG2 cells - 8 hour (AID 1224873); note: nearly all actives have a fitted effect of over 55% in size
# Experimental Setup: RealTime-Glo luminescence; series mostly up to 76.8 µM
Results filed as inconclusive are left out. The source made the active and inactive calls. Calls come from the whole dose curve; as a rule, active = well fitted cell-killing curve with a large enough effect in the repeat runs; inconclusive = weak or mixed curves; inactive = flat fitted curve, though single readings scatter.
Possible outcomes: Yes for active, No for inactive

>>> label_value("C1COCO1")
"No"
>>> label_value("CNCCCC1c2ccccc2C=Cc2ccccc21")
"No"
>>> label_value("CO[C@H]1O[C@H](CO)[C@@H](O)[C@H](O)[C@H]1O")
"No"
>>> label_value("CC(Cl)C(Cl)Cl (stereo not given)")
"No"
>>> label_value("CCCCCCCC/C=C\\CCCCCCCC(=O)OC(CO)CO")
"No"
>>> label_value("CC1CC(O)CC(C)(C)C1 (stereo not given)")
"No"
>>> label_value("O=C(/C=C/c1ccccc1)OCCCc1ccccc1")
"No"
>>> label_value("CC1=NN(c2ccc(C(=O)O)cc2)C(=O)C1")
"No"
>>> label_value("C=CC(=C)CCCC(C)(C)OC(C)=O")
"No"
>>> label_value("C=CC(C)(C)CC(=O)OC")
"No"
>>> label_value("CCCCCCCCCOC(C)=O")
"No"
>>> label_value("CCC1(C)CC(=O)NC1=O (stereo not given)")
"No"
>>> label_value("CCN(Cc1cccc(S(=O)(=O)O)c1)c1ccc(C(=C2C=CC(=[N+](CC)Cc3cccc(S(=O)(=O)[O-])c3)C=C2)c2ccccc2)cc1")
"No"
>>> label_value("CCCCN(CCCC)CCCOC(=O)c1ccc(N)cc1")
"No"
>>> label_value("CCCOc1ccc(S(=O)(=O)N2CCN(CC)CC2)cc1-c1nc2c(CC)n(Cc3ccccn3)nc2c(=O)[nH]1")
"No"
>>> label_value("CC1C2CC(CC2C2CCCC(O)C2)C1(C)C (stereo not given)")
"No"
>>> label_value("CCC(Cc1ccccc1)(C(=O)c1ccc(N2CCOCC2)cc1)N(C)C (stereo not given)")
"No"
>>> label_value("O=c1[nH]c2ccc(S(=O)CCN3CCC(Cc4ccc(F)cc4)CC3)cc2o1 (stereo not given)")
"No"
>>> label_value("CCCOCCOCCO")
"No"
>>> label_value("CO[C@@]12[C@H](COC(N)=O)C3=C(C(=O)C(C)=C(N)C3=O)N1C[C@@H]1N[C@@H]12")
"Yes"
>>> label_value("CC1(C)O[C@@H]2C[C@H]3[C@@H]4CCC5=CC(=O)C=C[C@]5(C)[C@H]4[C@@H](O)C[C@]3(C)[C@]2(C(=O)CO)O1")
"No"
>>> label_value("Cc1nccn1-c1ccc(Sc2cccc(C3(C(N)=O)CCOCC3)c2)cc1")
"No"
>>> label_value("CN1CCCN=C1/C=C/c1cccs1")
"No"
>>> label_value("CCCCOC(=O)CCS")
"No"
>>> label_value("CCCCC/C(=C\\c1ccccc1)CO")
"No"
>>> label_value("CCOC(=O)N1CCC(n2c(=O)[nH]c3cc(Cl)ccc32)CC1")
"No"
>>> label_value("CCC(=O)OC/C=C/c1ccccc1")
"No"
>>> label_value("CCOC(=O)c1ccccc1C")
"No"
>>> label_value("CCc1cccc(N(C)C(N)=Nc2cccc3ccccc23)c1")
"No"
>>> label_value("O=C(O)Cc1ccc(-c2ccccc2)cc1")
"No"
>>> label_value("COc1ccccc1N=Nc1c(S(=O)(=O)O)cc2cc(S(=O)(=O)O)cc(NC(C)=O)c2c1O")
"No"
>>> label_value("CNC(=O)N(c1ccccc1)c1ccccc1")
"No"
>>> label_value("COCCOC")
"No"
>>> label_value("O=C(N[C@@H](c1ccccc1)[C@@H]1CCCCN1)c1cccc(C(F)(F)F)c1Cl")
"No"
>>> label_value("CC1=CC(O)CC(C)(C)C1 (stereo not given)")
"No"
>>> label_value("COC(=O)c1cc(S(N)(=O)=O)ccc1OC")
"No"
>>> label_value("Cc1occc1C(=O)Nc1ccc(C(=O)N2CCC(F)(F)/C(=C\\C(=O)N3CCC(N4CCCCC4)CC3)c3ccccc32)cc1")
"No"
>>> label_value("O=C(O)c1ccccc1NCCc1ccccc1")
"No"
>>> label_value("O=S(=O)(c1ccccc1)c1ccc(Cl)cc1")
"No"
>>> label_value("CCC(C(=O)OCCOCCN(CC)CC)c1ccccc1 (stereo not given)")
"No"

----------
# Target System: Nuclear receptor subfamily 1 group I member 2 (Homo sapiens)
# Method Summary: Human pregnane X receptor (PXR) small molecule agonists, qHTS assay (AID 1346982); note: nearly all actives have a fitted effect of over 35% in size; for activation: % is set by controls: 0 for no effect and ±100 for the full control effect
# Experimental Setup: PXR-Luc HepG2, CYP3A4 luciferase reporter, 24 h; series mostly up to 92.4 µM
Records with an inconclusive call do not appear. Active and inactive are the calls of the source. The call rests on the fitted dose curve; in most records, active means well fitted activation curve with a large enough effect in the repeat runs; inconclusive means weak or mixed curves; inactive means no such curve, though single readings can be large or run the other way.
Classes used: active, inactive

>>> label_value("COC(=O)[C@@H]1CC2=CC(=O)CC[C@]2(C)[C@@]23O[C@@H]2C[C@@]2(C)[C@@H](CC[C@@]24CCC(=O)O4)[C@H]13")
"inactive"
>>> label_value("Oc1ccc(Nc2ccccc2)cc1")
"active"
>>> label_value("N#C[C@@H]1C[C@@H]2C[C@@H]2N1C(=O)[C@@H](N)C12CC3CC(CC(O)(C3)C1)C2")
"inactive"
>>> label_value("CC1=CC(O)CC(C)(C)C1 (stereo unspecified)")
"inactive"
>>> label_value("CCCCCC=CCC=CCCCCCCCC(=O)OCC")
"active"
>>> label_value("CN1C(=O)CC(C)(c2ccccc2)C1=O (stereo unspecified)")
"inactive"
>>> label_value("COC(OC)(C(=O)c1ccccc1)c1ccccc1")
"active"
>>> label_value("CC(C)=CC=O")
"inactive"
>>> label_value("CC(C)c1nnc2ccc(-c3ocnc3-c3cc(F)ccc3F)cn12")
"active"
>>> label_value("CC1=C(C=O)C(C)(C)CCC1")
"active"
>>> label_value("CC(C)(O)c1ccccc1CC[C@@H](SCC1(CC(=O)O)CC1)c1cccc(/C=C/c2ccc3ccc(Cl)cc3n2)c1")
"inactive"

----------
# Target System: Estrogen receptor (Homo sapiens) (UniProt P03372)
# Sequence (P03372 whole entry, looked up): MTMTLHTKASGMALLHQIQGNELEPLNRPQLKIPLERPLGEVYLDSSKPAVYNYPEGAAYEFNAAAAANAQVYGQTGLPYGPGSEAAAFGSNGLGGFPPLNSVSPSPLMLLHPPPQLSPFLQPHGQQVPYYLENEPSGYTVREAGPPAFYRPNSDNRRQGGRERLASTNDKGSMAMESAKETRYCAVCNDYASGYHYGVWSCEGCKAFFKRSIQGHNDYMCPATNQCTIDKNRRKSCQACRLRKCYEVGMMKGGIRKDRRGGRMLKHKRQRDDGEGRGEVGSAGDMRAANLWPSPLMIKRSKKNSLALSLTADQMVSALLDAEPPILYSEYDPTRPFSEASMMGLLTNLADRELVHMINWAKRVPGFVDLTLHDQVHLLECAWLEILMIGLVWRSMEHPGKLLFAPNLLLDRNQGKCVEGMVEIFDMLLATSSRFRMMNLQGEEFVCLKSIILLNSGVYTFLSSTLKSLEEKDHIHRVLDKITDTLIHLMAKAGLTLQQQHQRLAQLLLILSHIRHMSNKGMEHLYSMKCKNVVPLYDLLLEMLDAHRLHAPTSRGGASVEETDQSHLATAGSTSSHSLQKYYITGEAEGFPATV
# Method Summary: qHTS assay to identify small molecule antagonists of the estrogen receptor alpha (ER-alpha) signaling pathway using the BG1 cell line in the presence of 0.1 nM 17-beta-estradiol (AID 1259244); note: nearly all actives have a fitted effect of over 50% in size
# Experimental Setup: VM7Luc4E2 (BG1) ERE-luciferase, antagonist mode, 0.1 nM E2, 22 h; series mostly up to 92.4 µM
# Source text: National Center for Advancing Translational Sciences [NCATS] NIH Chemical Genomics Center [NCGC] U.S. Environmental Protection Agency [EPA] National Institutes of Environmental Health Sciences [NIEHS] National Toxicology Program [NTP] U.S. Food and Drug Administration [FDA] Estrogen receptor (ER), a member of the nuclear hormone receptor plays an important role in development, metabolic homeostasis and reproduction. […]
Inconclusive results are not listed. Active and inactive are the calls of the source. Calls come from the whole dose curve; as a rule, active = well fitted inhibition curve with a large enough effect in the repeat runs; inconclusive = weak or mixed curves; inactive = no such curve, though single readings can be large or run the other way.
Possible outcomes: T = active, F = inactive

>>> label_value("O=C(O)C(Cc1cc(I)c(O)c(I)c1)c1ccccc1 (stereo unspecified)")
"F"
>>> label_value("CCCCC(CC)COC(=O)COc1ccc(Cl)cc1C (stereo unspecified)")
"F"
>>> label_value("Cc1cc2nc3ccc(=[N+](C)C)cc-3sc2cc1N")
"T"
>>> label_value("O=[N+]([O-])c1cccc(S(=O)(=O)NCCNS(=O)(=O)c2cccc([N+](=O)[O-])c2)c1")
"F"
>>> label_value("CC(C)OCC1CO1 (stereo unspecified)")
"F"
>>> label_value("c1cc[c]([Bi]([c]2ccccc2)[c]2ccccc2)cc1")
"F"
>>> label_value("CC(C)CCCCCCOC(=O)CCCCC(=O)OCCCCCCC(C)C")
"F"
>>> label_value("CCOC(=O)/C=C/C(=O)O")
"F"
>>> label_value("O=C(O)c1ccccc1NCCc1ccccc1")
"F"
>>> label_value("CO[Si](C)(OC)OC")
"F"
>>> label_value("CC(C)(C)C(=O)C(Oc1ccc(Cl)cc1)n1ccnc1 (stereo unspecified)")
"F"
>>> label_value("CCC(C)(O)CCC=C(C)C (stereo unspecified)")
"F"
>>> label_value("CCOC(=O)OCC")
"F"
>>> label_value("CCC(C(=O)OCCOCCN(CC)CC)c1ccccc1 (stereo unspecified)")
"F"
>>> label_value("CCN(Cc1cccc(S(=O)(=O)O)c1)c1ccc(C(=C2C=CC(=[N+](CC)Cc3cccc(S(=O)(=O)[O-])c3)C=C2)c2ccccc2)cc1")
"F"
>>> label_value("CCCCCC=CCC=CCCCCCCCC(=O)OCC")
"F"

----------
# Method Summary: qHTS assay to test for compound auto fluorescence at 535 nm (green) in HEK293 cells (AID 720680); note: % is set by controls: 0 for no effect and ±100 for the full control effect
# Experimental Setup: green autofluorescence 485/535 nm; series mostly up to 91.3 µM
Calls of active or inactive are those of the source. The call rests on the fitted dose curve; in most records, active means well fitted curve in the direction sought with a large enough effect in the repeat runs; inconclusive means weak or mixed curves; inactive means flat fitted curve, though single readings scatter.
Property: fluorescence, % of fluorescein

>>> meas_value("COC(=O)CC(=O)C(C)(C)C")
"inactive"
>>> meas_value("CC(=O)[C@H]1CC[C@H]2[C@@H]3C[C@H](C)C4=CC(=O)CC[C@]4(C)[C@H]3[C@@H](O)C[C@]12C")
"0.123% [at 18.6 µM] (inactive)"
>>> meas_value("CCCCN(CCCC)CCCOC(=O)c1ccc(N)cc1")
"0.0466% [at 18.6 µM] (inactive)"
>>> meas_value("CC1=CC(O)CC(C)(C)C1 (stereo unspecified)")
"inactive"
>>> meas_value("CC(C)(O)c1ccccc1CC[C@@H](SCC1(CC(=O)O)CC1)c1cccc(/C=C/c2ccc3ccc(Cl)cc3n2)c1")
"inactive"
>>> meas_value("[O]=[Bi]")
"-0.0925% [at 3.72 µM] (inactive)"
